Source of measurements: patent US20040018971A1

Molecular target: T1, HLA-DRB1*0101 (human)
T1 construct: also called DR1
Experiment: competition with 125I-labeled standard peptide, purified HLA-DR, gel filtration
observationType: relative binding ratio

Data request, read-out relative binding ratio, for ITDFGLARLLDIDET (synthetic 15-mer; also called Her2/neu.861) [HER2/neu DR supermotif exemplary peptide ITDFGLARLLDIDET (position 861)]
0.0048 ratio (standard IC50 / test IC50)
